Listed here are binders together with their documented ELISA signal.
# tested-target: T1, Recombinant Human DLL4 (R&D Systems Cat#1506-D4/CF) (human, UniProt Q9NR61 27-524)
# T1 construct: Bought recombinant protein; also called delta-like protein 4; Delta-like 4
# assay-comment: ELISA, DLL4 coated on plate, Fab at 20 nM
I only need the number, thanks.

>>> recorded_number("Fab VH5-51_IGHD5-18*01>3_IGHJ4*01 G100K/G104T (H:KT) & V3-4_IGLJ1*01 M94R/S96M (L:RM) (Fab, V domains shown, Fab expressed in E. coli; Plasmid A adds CH1 with His6 and Flag tags to the heavy chain; Plasmid E adds lambda CL to the light chain; also called H:KT & L:RM; G100K/G104T & M94R/S96M) VH: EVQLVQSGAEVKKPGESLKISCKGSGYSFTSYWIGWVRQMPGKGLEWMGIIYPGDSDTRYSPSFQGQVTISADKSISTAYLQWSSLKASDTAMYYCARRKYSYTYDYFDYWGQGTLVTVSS VL: QTVVTQEPSFSVSPGGTVTLTCGLSSGSVSTSYYPSWYQQTPGQAPRTLIYSTNTRSSGVPDRFSGSILGNKAALTITGAQADDESDYYCVLYRGMGISYVFGTGTKVTVL")
0.087
>>> recorded_number("Fab VH5-51_IGHD5-18*01>3_IGHJ4*01 G100K/G104T G24T/S28R/G35V (H:KT TRV) & V3-4_IGLJ1*01 (Fab, V domains shown, Fab expressed in E. coli; Plasmid A adds CH1 with His6 and Flag tags to the heavy chain; Plasmid E adds lambda CL to the light chain; also called H:KT TRV & L:wt; G100K/G104T G24T/S28R/G35V & parent) VH: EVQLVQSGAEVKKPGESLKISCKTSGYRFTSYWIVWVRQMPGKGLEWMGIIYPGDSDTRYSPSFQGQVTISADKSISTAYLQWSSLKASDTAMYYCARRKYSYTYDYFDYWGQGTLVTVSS VL: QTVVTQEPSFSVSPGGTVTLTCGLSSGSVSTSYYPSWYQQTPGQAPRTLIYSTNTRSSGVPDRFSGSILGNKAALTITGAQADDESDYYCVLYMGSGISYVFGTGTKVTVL")
0.054

query: Can you look up the measured ELISA signal of Fab VH5-51_IGHD5-18*01>3_IGHJ4*01 G100K/G104T G24T/S28R/G35V (H:KT TRV) & V3-4_IGLJ1*01 M94R/S96M (L:RM) (Fab, V domains shown, Fab expressed in E. coli; Plasmid A adds CH1 with His6 and Flag tags to the heavy chain; Plasmid E adds lambda CL to the light chain; also called H:KT TRV & L:RM; G100K/G104T G24T/S28R/G35V & M94R/S96M) VH: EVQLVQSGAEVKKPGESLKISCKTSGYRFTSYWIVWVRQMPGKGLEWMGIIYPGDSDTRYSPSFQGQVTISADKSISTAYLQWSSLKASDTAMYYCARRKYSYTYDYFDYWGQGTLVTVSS VL: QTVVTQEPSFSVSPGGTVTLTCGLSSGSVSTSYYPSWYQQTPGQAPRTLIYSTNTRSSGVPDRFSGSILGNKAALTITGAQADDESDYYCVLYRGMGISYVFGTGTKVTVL for me?
result: 0.122
